Reference source for all entries: PubChem BioAssay

protocol-details: inhibitors of mutant huntingtin aggregation, primary screen, imaging, exon1htt(103Q)mCFP cells, high-content imaging (AID 483);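 also: compound exposure lasted 3 days before fixation; percent of the per-plate median nuclei count of sample wells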
test-parameters: exon1htt(103Q)mCFP cell line, aggregate imaging, at 2 µM; measured here: cell count, toxicity
Below: a set of entries, each annotated with reported nuclei count.

{"molecule": "CCC1Oc2ccc(C)cc2N(CC(=O)N(Cc2cccnc2)Cc2ccc(C)o2)C1=O (stereo unspecified)", "nuclei count, %": 93.4}
{"molecule": "CCOC(=O)C1CCN(c2c(NC3CCCc4ccccc43)c(=O)c2=O)CC1 (stereo unspecified)", "nuclei count, %": 86.1}
{"molecule": "Cc1cc(C)n2c(SCCN3C(=O)c4ccccc4C3=O)nnc2n1", "nuclei count, %": 126}
{"molecule": "CCOC(=O)c1c(C)n(OCc2ccccc2)c2ccc3c(no[n+]3[O-])c12", "nuclei count, %": 104}
{"molecule": "O=C(Nc1ccc(N2CCN(Cc3ccccc3Cl)CC2)cc1)c1cccnc1", "nuclei count, %": 65.6}
{"molecule": "O=C(O)c1cc2c(s1)CCCC2", "nuclei count, %": 100}
